Assay: Solubility in an acidic environment
Assay type: physicochemical
Conditions: aqueous buffer
Quantity Name: solubility

Could you tell me which solubility is on file for C[C@@H]1NC(C)(C)CO[C@@]1(O)c1cccc(Cl)c1 ?
~150 mg/mL
